Experiment: in vitro
Conditions: rat, liver microsomes
Description: Metabolic stability in rat liver microsomes assessed as parent compound remaining after 0.5 hrs
metric name: remaining at 0.5 h (%)

substance smiles	unit symbol	assay result
CC1(C)N=C(C2CCCCC2)c2ccc(C#N)cc2N(c2ccc(NCCNC3CCOCC3)cc2)C1=O	%	28

====

Assay: Protein binding in rat plasma assessed as unbound fraction
Type: ADME, cell-free

substance smiles	fraction unbound
CC1(C)N=C(C2CCCCC2)c2ccc(C#N)cc2N(c2ccc(NCCNC3CCOCC3)cc2)C1=O	0.029

====

Experiment: Solubility of the compound in JP1 buffer at pH 1.2
Type: physicochemical
metric name: solubility (µg/mL)

substance smiles	assay result
CC1(C)N=C(C2CCCCC2)c2ccc(C#N)cc2N(c2ccc(NCCNC3CCOCC3)cc2)C1=O	760

====

Experiment: Half life in Sprague-Dawley rat at 10 mg/kg, po
Type: ADME, organism-based
Details: in vivo
metric name: half-life (h)

substance smiles	assay result
CC1(C)N=C(C2CCCCC2)c2ccc(C#N)cc2N(c2ccc(NCCNC3CCOCC3)cc2)C1=O	4.23

====

pIC50: −log10 of the molar value.
Entries below carry reported pIC50 on Parathyroid hormone/parathyroid hormone-related peptide receptor (Homo sapiens).
metric name: pIC50

molecule	result qualifier	assay result
NCCNc1ccc(N2C(=O)CN(C3CCCCC3)Cc3ccc(Cl)cc32)cc1	<	4.00
CN(C)C1N=C(C2CCCCC2)c2ccc(Cl)cc2N(c2ccc(NCCN)cc2)C1=O (stereo not given)	=	4.36
CC1(C)N=C(C2CCCCC2)c2ccc(C#N)cc2N(c2ccc(NCCN)cc2)C1=O	=	6.14
CC1(C)N=C(C2CCCCC2)c2ccc(C#N)cc2N(c2ccc(CCCN)cc2)C1=O	=	5.12
CC(C)N1N=C(C2CCCCC2)c2ccc(Cl)cc2N(c2ccc(CC3=NCCN3)cc2)C1=O	=	5.03

====

Assay: Oral bioavailability in Sprague-Dawley rat at 10 mg/kg
Format: ADME, organism-based
Conditions: in vivo

substance smiles	bioavailability (%)
CC1(C)N=C(C2CCCCC2)c2ccc(C#N)cc2N(c2ccc(NCCNC3CCOCC3)cc2)C1=O	27

====

Assay: Volume of distribution in Sprague-Dawley rat at 1 mg/kg, iv
Format: ADME, organism-based
Conditions: in vivo

substance smiles	Vd
CC1(C)N=C(C2CCCCC2)c2ccc(C#N)cc2N(c2ccc(NCCNC3CCOCC3)cc2)C1=O	4.7 L/kg

====

Target: Parathyroid hormone/parathyroid hormone-related peptide receptor (Homo sapiens, UniProt Q03431)
Sequence (Q03431 whole entry): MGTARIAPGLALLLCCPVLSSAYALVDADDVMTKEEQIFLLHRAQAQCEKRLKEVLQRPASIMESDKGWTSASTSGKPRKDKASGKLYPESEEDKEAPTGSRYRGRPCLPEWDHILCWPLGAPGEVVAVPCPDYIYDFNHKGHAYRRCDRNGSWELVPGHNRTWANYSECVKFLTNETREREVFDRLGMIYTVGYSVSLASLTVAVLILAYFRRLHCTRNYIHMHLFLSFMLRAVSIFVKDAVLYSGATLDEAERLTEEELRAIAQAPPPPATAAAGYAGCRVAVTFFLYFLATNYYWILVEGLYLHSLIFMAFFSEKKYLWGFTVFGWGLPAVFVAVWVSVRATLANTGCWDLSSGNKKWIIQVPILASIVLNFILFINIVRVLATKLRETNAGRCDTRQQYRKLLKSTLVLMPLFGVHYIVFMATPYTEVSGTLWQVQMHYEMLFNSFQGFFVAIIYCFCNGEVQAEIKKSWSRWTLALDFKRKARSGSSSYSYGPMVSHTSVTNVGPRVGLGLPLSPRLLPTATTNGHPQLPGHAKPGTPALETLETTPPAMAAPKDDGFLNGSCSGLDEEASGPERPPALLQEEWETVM
pIC50: −log10 of the molar value.
Each entry below carries its recorded pIC50.

compound	result qualifier	pIC50
CC(C)C1N=C(C2CCCCC2)c2ccc(Cl)cc2N(c2ccc(NCCN)cc2)C1=O (stereo not given)	=	4.85
CC1(C)N=C(C2CCCCC2)c2ccc(C#N)cc2N(c2ccc(NCCNC3CCOCC3)cc2)C1=O	=	7.05
CC1(C)N=C(c2ccccc2)c2ccc(Cl)cc2N(c2ccc(NCCN)cc2)C1=O	=	4.35
NCCNc1ccc(N2C(=O)CN(C3CCCCC3)C(=O)c3ccc(Cl)cc32)cc1	<	4.00
COc1ccc2c(c1)N(c1ccc(NCCN)cc1)C(=O)C(C)(C)N=C2C1CCCCC1	=	4.85
